Values were extracted from patent US20240208961A1.

TEST_DESCRIPTION: Pharmacokinetic studies of certain compounds in female Balb/c mice (Example 5)
Format: in vivo
EXPERIMENTAL_CONDITIONS: female, Balb/c, mouse, plasma, po, 30 mg/kg, I-2 PO 30 mg/kg, 24 hr, read-out: Plasma concentration Individual
RECORDED_ENDPOINT: concentration at 24 h (ng/mL)

COMPOUND	RECORDED_ENDPOINT	ENDPOINT_VALUE
CC(C)Cc1sc(Nc2ncc(-c3cccs3)cc2C(=O)O)nc1C1=CCCCC1 [Compound I-2]	concentration at 24 h	4.28

---

TEST_DESCRIPTION: Pharmacokinetic studies of certain compounds in female Balb/c mice (Example 5)
Type: in vivo
EXPERIMENTAL_CONDITIONS: female, Balb/c, mouse, plasma, po, 23.8 mg/kg, I-29 PO 23.8 mg/kg, 0.25 hr, read-out: Plasma concentration Mean
RECORDED_ENDPOINT: concentration at 0.25 hr (ng/mL)

1. CC(C)Cc1sc(Nc2ncc(-c3cccs3)cc2C(=O)O)nc1C1CCC(F)(F)CC1 151
